These entries and their values trace back to patent US20020151473A1.

Assayed Target: IgG
Protocol Details: microcalorimetry and surface plasmon resonance (same value stated for both)
Quantity Name: Kd (µM)
Unit µM implied. Number only.

Which value of Kd has been reported for cyclized (locked helix) peptide FNM(5)QQRRFY(6)ALH in the records?
100
